# Test system: MS2 coat protein
# procedureSummary: apparent KD of MS2 coat protein; designed switch direction (-1 OFF switch, 1 ON switch): 1; higher = weaker reporter binding
# testSettings: Eterna round: R95; input ligand: microRNA oligo, concentration not stated
apparent KD of MS2 coat protein of 30 nM or higher: Met. Under 30 nM: Not met.

INSERT INTO results (residuecodes, testedsystem, categorylabel) VALUES
  ('AGUCCAGCAAGAGCUGGACAAAAGCAUGUACAUGAGGAUCACCCAUGUUCAUGUACAAGCUUUUUGCUCGUCUUAAA [Mat - hsa-mir-208a - Mod of JL - 57] (puzzle: Sensor for hsa-mir-208a)', 'MS2 coat protein', 'Not met'),
  ('AGUCCAGCCUGAGCUGGACAAAAGCAUGUACAUGAGGAUCACCCAUGUUCAUGUACAAGCUUUUUGCUCGUCUAAAG [Mat - hsa-mir-208a - Mod of JL - 66] (puzzle: Sensor for hsa-mir-208a)', 'MS2 coat protein', 'Not met'),
  ('CUCUUACAUGAGGAUCACCCAUGUGUUGUCGUGGGAGGAUAUCCUGGUUCGGUGGCGUUGGGAGAAGGCCUAUGUC [× ×•×ª×• ×ž×“×™× ×” × ×—×ª-18] (puzzle: Same State 1)', 'MS2 coat protein', 'Met'),
  ('AGUCCAGCCUGAGCUGGACAAAAGCAUGUACAUGAGGAUCACCCAUGUCAUGUACAAGCUUUUUGCUCGUCUUAAAG [Mat - hsa-mir-208a - Mod of JL - D23] (puzzle: Sensor for hsa-mir-208a)', 'MS2 coat protein', 'Not met'),
  ('AGUCCAGAAUAAACUGGACAAAGACAUGUACAUGAGGAUCACCCAUGUCAUGUACAAGUUUUUUGCUCGUCUUAUAA (puzzle: Sensor for hsa-mir-208a)', 'MS2 coat protein', 'Not met'),
  ('UUCCUACAUGAGGAUCACCCAUGUGACGCCUCGAUAGGAUAUGCGUGUGCCUUGGCGCAUGCAGAAGGGUUGUAGC [JL Aveso mod 9] (puzzle: Same State 1)', 'MS2 coat protein', 'Met'),
  ('CGUCCGGCCUGUGCUGGCCGGCGGCUUGUACAUGAGGAUCACCCAUGUUCUUGUGCUGGCUUUUUGCUCGUCUUGUG [salish99_mir208a_022] (puzzle: Sensor for hsa-mir-208a)', 'MS2 coat protein', 'Not met'),
  ('UCUUGGUUUUUGCUCGUUUUUUGUGUUGAACAUGAGGAUCACCCAUGUAUUGUACGAUCCGGUUUAGUGAUGGUCCG [JMF 63] (puzzle: Sensor for hsa-mir-208a)', 'MS2 coat protein', 'Not met');

**Query** Answer whether apparent KD of MS2 coat protein of GGAGCCGGUACUGAGGAUAUUUAUAUUAAAACAUGAGGAUCACCCAUGUAGGCCAGAAGGCCUUGGGAGAAGGCAGAUCGGCUCC [Biseusra - 5] (puzzle: Same State 2) is greater than or equal to 30 nM.
**Result** Met

**Query** Please check the record GGGUAGGAAUUACAGGAUAUAUAGAAGUUGACAUGAGGAUCACCCAUGUAUGGGUUGGGAGGAGGAUAGAAGGGUAUGAGAGGUG [JR_SS2_Sub032] (puzzle: Same State 2) and state if its apparent KD of MS2 coat protein is at or above 30 nM.
**Result** Met
